Data provenance: patent US8173645B2

Listed here: items and their measured pEC50.
# test.target: glucokinase (GK), residues 12-465 of the human enzyme (Homo sapiens)
# Construct: I.D. No. 1 corresponds to residues 12-465 of glucokinase
# Sequence (P35557 with tags, fused parts or gaps isoform P35557-2): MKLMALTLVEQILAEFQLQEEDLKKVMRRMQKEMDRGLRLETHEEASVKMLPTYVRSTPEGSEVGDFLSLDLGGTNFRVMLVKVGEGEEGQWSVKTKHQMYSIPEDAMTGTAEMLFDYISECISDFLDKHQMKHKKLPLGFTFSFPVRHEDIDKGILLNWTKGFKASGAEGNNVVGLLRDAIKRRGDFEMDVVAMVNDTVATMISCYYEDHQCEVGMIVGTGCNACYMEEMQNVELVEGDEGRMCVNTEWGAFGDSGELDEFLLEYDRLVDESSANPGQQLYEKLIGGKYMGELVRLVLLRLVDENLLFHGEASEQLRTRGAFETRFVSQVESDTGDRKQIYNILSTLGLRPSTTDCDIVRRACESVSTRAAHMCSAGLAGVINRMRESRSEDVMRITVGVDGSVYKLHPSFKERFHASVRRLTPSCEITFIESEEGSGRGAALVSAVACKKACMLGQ
# experiment.summary: Enzymatic glucokinase activity assay (KinaseGlo luminescence, ATP consumption)
# settings: GK activation; 5 μM ATP, 5 mM Glucose; Kact = concentration giving 50% of the maximal increase in GK activity; read-out: pKact
pEC50: −log10 of the molar value.

Consider the reported pEC50 for these molecules:
• COc1ccc(Oc2cccc(S(=O)(=O)N3CCN([C@@H](CC4CCCCC4)C(=O)Nc4nccs4)C(=O)C3)c2)cc1 [Example 228] = 5.90 to 6.10
• CC(C)C[C@@H](C(=O)Nc1ncc(Cl)s1)N1CCN(S(=O)(=O)C2CC2)CC1=O [Example 10] = 5.90 to 6.10

// next item, pEC50 requested
Ask: Give the reported value of pEC50 for this record: Cn1ccc(S(=O)(=O)N2CCN([C@@H](CC3CCCCC3)C(=O)Nc3nccs3)C(=O)C2)n1 [Example 112]
Reply: ≥ 6.20

* * *

Listed here: items and their measured Emax.
# test.target: glucokinase (GK), residues 12-465 of the human enzyme (Homo sapiens, UniProt P35557)
# Construct: I.D. No. 1 corresponds to residues 12-465 of glucokinase; made in house; host or cells: E. coli DH10b-Tlr
# Sequence (P35557 with tags, fused parts or gaps isoform P35557-2): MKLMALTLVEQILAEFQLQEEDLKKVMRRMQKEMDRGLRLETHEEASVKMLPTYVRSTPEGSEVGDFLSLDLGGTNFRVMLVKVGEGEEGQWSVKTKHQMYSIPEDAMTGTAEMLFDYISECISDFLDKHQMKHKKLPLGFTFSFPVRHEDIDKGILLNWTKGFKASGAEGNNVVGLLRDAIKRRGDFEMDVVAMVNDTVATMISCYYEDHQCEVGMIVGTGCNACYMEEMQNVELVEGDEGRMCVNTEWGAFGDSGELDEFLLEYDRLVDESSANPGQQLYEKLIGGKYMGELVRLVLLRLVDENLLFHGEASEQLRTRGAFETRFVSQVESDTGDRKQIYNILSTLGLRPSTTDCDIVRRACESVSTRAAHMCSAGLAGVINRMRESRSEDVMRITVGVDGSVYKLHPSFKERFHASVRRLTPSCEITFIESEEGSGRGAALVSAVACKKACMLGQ
# experiment.summary: Enzymatic glucokinase activity assay (KinaseGlo luminescence, ATP consumption)
# Format: biochemical
# settings: calculated maximal gain in GK enzyme activity at a saturating concentration of the compound; 5 μM ATP, 5 mM Glucose; read-out: % ACTmax

Consider the reported Emax for these compounds:
* O=C(Nc1nccs1)[C@H](CC1CCCCC1)N1CCN(C(=O)Nc2ccc(OCc3ccccc3)cc2)CC1=O | ≤ 74%
* Cc1c(Cl)cccc1S(=O)(=O)N1CCN([C@@H](CC2CCCCC2)C(=O)Nc2nccs2)C(=O)C1 | 74.1 to 97%
* O=C(Nc1nccs1)[C@H](CC1CCCCC1)N1CCN(C(=S)Nc2ccc(OC(F)F)cc2)CC1=O | 97.1 to 107%

Ask: Give the reported value of Emax for this record: O=C(Nc1nccs1)[C@H](CC1CCCCC1)N1CCN(S(=O)(=O)Cc2cccc(C(F)(F)F)c2)CC1=O
Reply: 74.1 to 97%

Ask: Give the reported value of Emax for this record: CC(C)(C)c1ccc(S(=O)(=O)N2CCN([C@@H](CC3CCCCC3)C(=O)Nc3nccs3)C(=O)C2)cc1
Reply: ≤ 74%

Ask: Give the reported value of Emax for this record: Cc1nccc(-c2cccc(S(=O)(=O)N3CCN([C@@H](CC4CCCCC4)C(=O)Nc4nccs4)C(=O)C3)c2)n1
Reply: 97.1 to 107%

Ask: Give the reported value of Emax for this record: O=C(Nc1nccs1)[C@H](CC1CCCCC1)N1CCN(C(=O)Nc2ccc3ccccc3c2)CC1=O
Reply: 74.1 to 97%

Ask: Give the reported value of Emax for this record: O=C(Nc1nccs1)[C@H](CC1CCCCC1)N1CCN(S(=O)(=O)c2ccc(-n3cccn3)cc2)CC1=O
Reply: 74.1 to 97%

Ask: Give the reported value of Emax for this record: COc1ccc(CNC(=S)N2CCN([C@@H](CC3CCCCC3)C(=O)Nc3nccs3)C(=O)C2)cc1
Reply: 74.1 to 97%

Ask: Give the reported value of Emax for this record: O=C(Nc1nccs1)[C@H](CC1CCCCC1)N1CCN(S(=O)(=O)c2ccc(Cl)s2)CC1=O
Reply: 97.1 to 107%

Ask: Give the reported value of Emax for this record: CCOC(=O)c1nc(-c2ccc(S(=O)(=O)N3CCN([C@@H](CC4CCCCC4)C(=O)Nc4nccs4)C(=O)C3)s2)no1
Reply: ≤ 74%

Ask: Give the reported value of Emax for this record: CNC(=O)Nc1ccc(S(=O)(=O)N2CCN([C@@H](CC3CCCCC3)C(=O)Nc3nccs3)C(=O)C2)cc1Cl
Reply: 97.1 to 107%

Ask: Give the reported value of Emax for this record: N#Cc1cccc(S(=O)(=O)N2CCN([C@@H](CC3CCCCC3)C(=O)Nc3nccs3)C(=O)C2)c1
Reply: 108 to 119%

Ask: Give the reported value of Emax for this record: O=C(Nc1nccs1)[C@H](CC1CCCCC1)N1CCN2[C@@H](CCS2(=O)=O)C1=O
Reply: 74.1 to 97%

Ask: Give the reported value of Emax for this record: O=C(Nc1nccs1)[C@H](CC1CCCCC1)N1CCN(S(=O)(=O)c2ccccc2)CC1=O
Reply: 97.1 to 107%
